Reported pIC50 by item:
Assay target: T1, human CCR8 (human, UniProt P51685 1-355)
T1 construct: whole, on cells; also called hCCR8
T1 sequence (P51685 whole entry): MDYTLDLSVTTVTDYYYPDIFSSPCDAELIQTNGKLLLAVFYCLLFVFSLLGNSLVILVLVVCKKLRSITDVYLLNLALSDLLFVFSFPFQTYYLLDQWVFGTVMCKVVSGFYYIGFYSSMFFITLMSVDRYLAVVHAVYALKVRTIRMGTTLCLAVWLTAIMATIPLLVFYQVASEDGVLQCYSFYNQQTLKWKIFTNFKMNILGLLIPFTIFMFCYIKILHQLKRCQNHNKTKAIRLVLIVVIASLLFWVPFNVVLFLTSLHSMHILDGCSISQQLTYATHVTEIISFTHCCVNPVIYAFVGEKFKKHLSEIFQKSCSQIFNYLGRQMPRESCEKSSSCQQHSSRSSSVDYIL
Assay protocol: FACS, competition with AF647-human CCL1 on CHO-K1-human CCR8 cells
Protocol: Antibodies were prepared with 3-fold serial dilution ranging from 200 nM to 0.01 nM in FACS buffer. Then, cells were washed by FACS buffer for three times after incubation. […] FlowJo software was used for analysis. Data was plotted as the logarithm of antibody concentration versus mean fluorescence signals. IC₅₀ values were determined in GraphPad Prism 8 (GraphPad Software) using a log(agonist) vs. response-Variable slope (4 parameters) curve fit.
# pIC50: negative log10 of molar concentration; output just the value

204A2G12 (antibody, V domains shown, purified murine hybridoma antibody) VH: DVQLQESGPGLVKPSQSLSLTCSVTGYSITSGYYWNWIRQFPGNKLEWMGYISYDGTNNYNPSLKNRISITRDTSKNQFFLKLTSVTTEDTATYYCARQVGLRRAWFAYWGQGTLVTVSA VL: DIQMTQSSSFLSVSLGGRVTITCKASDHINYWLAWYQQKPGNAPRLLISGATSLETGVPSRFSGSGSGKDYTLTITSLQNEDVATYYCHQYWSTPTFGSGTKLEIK: 8.56
273H2G6 (antibody, V domains shown, purified murine hybridoma antibody) VH: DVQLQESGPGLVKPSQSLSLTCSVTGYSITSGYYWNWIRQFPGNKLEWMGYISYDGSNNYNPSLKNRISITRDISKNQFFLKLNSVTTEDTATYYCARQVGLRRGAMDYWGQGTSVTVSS VL: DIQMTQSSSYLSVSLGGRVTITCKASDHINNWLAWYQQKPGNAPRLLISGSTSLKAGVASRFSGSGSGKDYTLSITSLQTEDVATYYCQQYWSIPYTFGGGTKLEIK: 8.61
160D1E3 (antibody, V domains shown, purified murine hybridoma antibody) VH: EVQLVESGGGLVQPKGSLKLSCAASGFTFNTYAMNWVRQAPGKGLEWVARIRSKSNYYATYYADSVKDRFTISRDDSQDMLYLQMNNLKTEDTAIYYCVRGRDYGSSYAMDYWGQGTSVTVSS VL: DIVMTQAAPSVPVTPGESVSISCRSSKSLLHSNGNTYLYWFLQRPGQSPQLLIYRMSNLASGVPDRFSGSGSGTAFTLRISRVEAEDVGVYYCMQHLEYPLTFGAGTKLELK: 9.14

What does the data say about its pIC50? Entry: 164G10D6 (antibody, V domains shown, purified murine hybridoma antibody) VH: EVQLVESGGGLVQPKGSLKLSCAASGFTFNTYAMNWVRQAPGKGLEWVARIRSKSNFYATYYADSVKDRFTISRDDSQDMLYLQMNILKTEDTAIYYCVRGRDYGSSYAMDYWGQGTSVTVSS VL: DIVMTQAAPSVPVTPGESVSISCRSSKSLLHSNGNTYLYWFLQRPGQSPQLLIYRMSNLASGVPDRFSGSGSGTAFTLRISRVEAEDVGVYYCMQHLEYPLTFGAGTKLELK 9.22

Now consider 348E2D11 (antibody, V domains shown, purified murine hybridoma antibody) VH: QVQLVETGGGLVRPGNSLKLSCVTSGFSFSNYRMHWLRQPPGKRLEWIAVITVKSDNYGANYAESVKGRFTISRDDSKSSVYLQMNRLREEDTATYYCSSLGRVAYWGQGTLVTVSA VL: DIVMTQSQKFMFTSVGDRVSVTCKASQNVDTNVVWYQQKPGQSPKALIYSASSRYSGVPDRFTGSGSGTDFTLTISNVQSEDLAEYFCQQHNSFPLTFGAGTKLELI and answer again. 9.64

Data origin: patent US20250034266A1
